The measured values listed here are drawn from patent US20240425492A1.

experiment: Solubility study in aqueous media at 37° C. (HPLC of supernatants, pH); details: pH 6.8 phosphate buffer (50 mM), 37 °C, pH 6.8, aqueous buffer, thermodynamic from solid
Quantity Kind: solubility at 24 h (µg/mL)

{"Molecule": "CN1C[C@H]2C[C@@]2(C#Cc2cc3ncnc(Nc4cccc(Cl)c4F)c3cc2NC(=O)/C=C/CN2CCOCC2)C1 [Form C]", "Value Reported": 16.5}

---

assay: physchem; conditions: 37 °C, pH 1, simulated gastric fluid, thermodynamic from solid
Quantity Kind: solubility at 2 h

{"Molecule": "CN1C[C@H]2C[C@@]2(C#Cc2cc3ncnc(Nc4cccc(Cl)c4F)c3cc2NC(=O)/C=C/CN2CCOCC2)C1 [Form F]", "Quantity Kind": "solubility at 2 h", "Value Reported": "> 2000 µg/mL"}

---

assay: Solubility study in aqueous media at 37° C. (HPLC of supernatants, pH); conditions: water, 37 °C, thermodynamic from solid

{"Compound": "CN1C[C@H]2C[C@@]2(C#Cc2cc3ncnc(Nc4cccc(Cl)c4F)c3cc2NC(=O)/C=C/CN2CCOCC2)C1 [Form C]", "Display Unit": "µg/mL", "solubility at 2 h": 1.6}

---

assay: Solubility study in aqueous media at 37° C. (HPLC of supernatants, pH); conditions: pH 4.5 acetate buffer (50 mM), 37 °C, pH 4.5, aqueous buffer, thermodynamic from solid

{"Compound": "CN1C[C@H]2C[C@@]2(C#Cc2cc3ncnc(Nc4cccc(Cl)c4F)c3cc2NC(=O)/C=C/CN2CCOCC2)C1 [Form C]", "solubility at 24 h": "> 2000 µg/mL"}

---

assay: Solubility study in aqueous media at 37° C. (HPLC of supernatants, pH); conditions: water, 37 °C, thermodynamic from solid
Quantity Kind: solubility at 24 h (µg/mL)

{"Compound": "CN1C[C@H]2C[C@@]2(C#Cc2cc3ncnc(Nc4cccc(Cl)c4F)c3cc2NC(=O)/C=C/CN2CCOCC2)C1 [Form C]", "Quantity Kind": "solubility at 24 h", "Value Reported": 2}

---

test: physchem; conditions: 37 °C, pH 1, simulated gastric fluid, thermodynamic from solid
Quantity Kind: solubility

{"Compound": "CN1C[C@H]2C[C@@]2(C#Cc2cc3ncnc(Nc4cccc(Cl)c4F)c3cc2NC(=O)/C=C/CN2CCOCC2)C1 [Form F]", "Value Reported": "> 2000 µg/mL"}

---

assay: physchem; conditions: 37 °C, pH 2, simulated gastric fluid, thermodynamic from solid
Quantity Kind: solubility at 2 h

{"Compound": "CN1C[C@H]2C[C@@]2(C#Cc2cc3ncnc(Nc4cccc(Cl)c4F)c3cc2NC(=O)/C=C/CN2CCOCC2)C1 [Form F]", "Quantity Kind": "solubility at 2 h", "Value Reported": "> 2000 µg/mL"}

---

experiment: physchem; conditions: 37 °C, pH 2, simulated gastric fluid, thermodynamic from solid
Quantity Kind: solubility

{"Compound": "CN1C[C@H]2C[C@@]2(C#Cc2cc3ncnc(Nc4cccc(Cl)c4F)c3cc2NC(=O)/C=C/CN2CCOCC2)C1 [Form F]", "Value Reported": "> 2000 µg/mL"}

---

assay: Solubility study in aqueous media at 37° C. (HPLC of supernatants, pH); details: pH 6.8 phosphate buffer (50 mM), 37 °C, pH 6.8, aqueous buffer, thermodynamic from solid

{"Compound": "CN1C[C@H]2C[C@@]2(C#Cc2cc3ncnc(Nc4cccc(Cl)c4F)c3cc2NC(=O)/C=C/CN2CCOCC2)C1 [Form C]", "solubility at 2 h": "20.4 µg/mL"}
